Biological target: human α1H T-type channels (Homo sapiens)
Construct: expressed in transfected cells; host or cells: HEK 293
Sequence (O95180 whole entry): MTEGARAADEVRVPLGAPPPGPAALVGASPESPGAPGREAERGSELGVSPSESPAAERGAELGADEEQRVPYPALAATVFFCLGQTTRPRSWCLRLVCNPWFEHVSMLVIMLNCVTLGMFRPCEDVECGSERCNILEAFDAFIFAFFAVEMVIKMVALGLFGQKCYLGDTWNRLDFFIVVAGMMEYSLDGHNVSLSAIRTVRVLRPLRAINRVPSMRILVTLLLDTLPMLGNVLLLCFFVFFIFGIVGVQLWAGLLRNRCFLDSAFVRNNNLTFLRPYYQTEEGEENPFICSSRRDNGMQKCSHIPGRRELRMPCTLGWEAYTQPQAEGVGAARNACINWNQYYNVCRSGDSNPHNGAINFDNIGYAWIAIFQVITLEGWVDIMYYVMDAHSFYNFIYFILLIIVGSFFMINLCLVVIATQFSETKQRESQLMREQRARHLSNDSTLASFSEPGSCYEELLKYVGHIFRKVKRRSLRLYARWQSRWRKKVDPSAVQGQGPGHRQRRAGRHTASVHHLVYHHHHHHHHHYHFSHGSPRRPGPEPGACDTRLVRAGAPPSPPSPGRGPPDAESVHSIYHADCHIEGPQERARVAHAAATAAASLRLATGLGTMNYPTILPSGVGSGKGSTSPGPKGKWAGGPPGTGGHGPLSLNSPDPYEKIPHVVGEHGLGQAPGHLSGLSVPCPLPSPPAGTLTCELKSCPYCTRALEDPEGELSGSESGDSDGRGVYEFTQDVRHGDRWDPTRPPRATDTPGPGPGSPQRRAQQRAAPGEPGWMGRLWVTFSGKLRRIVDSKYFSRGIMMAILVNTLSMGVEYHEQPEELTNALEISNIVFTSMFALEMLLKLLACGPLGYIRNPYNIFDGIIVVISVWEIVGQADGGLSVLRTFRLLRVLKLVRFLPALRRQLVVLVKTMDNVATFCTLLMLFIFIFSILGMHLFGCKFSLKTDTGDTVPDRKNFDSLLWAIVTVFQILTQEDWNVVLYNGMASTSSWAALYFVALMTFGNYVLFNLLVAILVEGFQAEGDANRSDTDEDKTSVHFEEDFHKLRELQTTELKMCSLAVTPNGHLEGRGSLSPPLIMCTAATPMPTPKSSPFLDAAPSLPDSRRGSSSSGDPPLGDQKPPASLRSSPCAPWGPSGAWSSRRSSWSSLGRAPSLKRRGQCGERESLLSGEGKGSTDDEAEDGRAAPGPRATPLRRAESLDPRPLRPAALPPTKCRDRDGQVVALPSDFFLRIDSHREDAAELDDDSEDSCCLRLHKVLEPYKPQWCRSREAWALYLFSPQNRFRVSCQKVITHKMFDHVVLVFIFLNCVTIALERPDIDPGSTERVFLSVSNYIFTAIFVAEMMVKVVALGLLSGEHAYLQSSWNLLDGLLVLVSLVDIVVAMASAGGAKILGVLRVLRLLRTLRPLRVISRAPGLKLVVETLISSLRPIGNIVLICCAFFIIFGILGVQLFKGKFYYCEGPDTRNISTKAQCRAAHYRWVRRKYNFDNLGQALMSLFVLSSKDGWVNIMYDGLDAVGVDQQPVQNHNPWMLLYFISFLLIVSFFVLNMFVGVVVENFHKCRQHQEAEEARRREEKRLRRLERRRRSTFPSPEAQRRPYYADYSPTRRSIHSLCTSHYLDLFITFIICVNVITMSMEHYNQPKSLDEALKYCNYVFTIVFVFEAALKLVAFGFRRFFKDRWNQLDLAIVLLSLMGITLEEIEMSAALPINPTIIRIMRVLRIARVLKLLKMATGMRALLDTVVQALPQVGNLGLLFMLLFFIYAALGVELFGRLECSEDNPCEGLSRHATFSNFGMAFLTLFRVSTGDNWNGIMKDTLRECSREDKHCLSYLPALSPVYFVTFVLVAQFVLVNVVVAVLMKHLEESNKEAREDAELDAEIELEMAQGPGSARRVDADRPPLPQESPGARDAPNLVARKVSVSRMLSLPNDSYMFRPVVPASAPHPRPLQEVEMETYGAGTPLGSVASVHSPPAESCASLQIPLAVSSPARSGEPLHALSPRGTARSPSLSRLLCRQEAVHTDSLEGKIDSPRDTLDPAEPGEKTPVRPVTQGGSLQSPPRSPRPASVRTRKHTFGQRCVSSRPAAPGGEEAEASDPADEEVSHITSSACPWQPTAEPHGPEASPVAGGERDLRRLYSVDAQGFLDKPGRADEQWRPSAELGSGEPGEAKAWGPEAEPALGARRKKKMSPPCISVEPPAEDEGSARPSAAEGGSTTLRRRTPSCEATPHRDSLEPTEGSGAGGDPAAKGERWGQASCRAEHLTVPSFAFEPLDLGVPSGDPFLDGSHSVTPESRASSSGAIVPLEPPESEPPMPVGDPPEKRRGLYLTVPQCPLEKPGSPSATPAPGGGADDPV
Experiment: T-type calcium channel block, whole cell patch clamp in HEK cells (α1H)
Type: cell-based
Conditions: HEK cells, patch clamp, mainly non-inactivated protocol; values above 10 μM shown as 10 μM; read-out: T-type Calcium Channel Block α1H IC50
Method: T-type calcium channel blocking activity was assayed in human embryonic kidney cells, HEK 293, stably transfected with the T-type calcium channel subunits. […] Standard patch-clamp techniques were employed to identify blockers of T-type currents. […] Data were analyzed using Clampfit (Axon Instruments) and SigmaPlot 4.0 (Jandel Scientific). […]
ATTRIBUTE_MEASURED: IC50 (nM)

COc1cc(F)cc(C(=O)NCC2CCN(CCNS(=O)(=O)C(C)(C)C)CC2)c1 :: 450
CC(C)(C)NC(=O)CN1CCC(CNC(=O)/C=C/c2cc(Cl)cc(Cl)c2)CC1 :: 1440
CC(C)(C)OC(=O)NCCN1CCC(CNC(=O)c2cccc(C(F)(F)F)c2)CC1 :: 1170
CC(C)(C)C(=O)NCCN1CCC(CC(=O)Nc2cc(C(F)(F)F)cc(C(F)(F)F)c2)CC1 :: 220
CC1(NC(=O)CN2CCC(CNC(=O)c3cc(F)cc(C(F)(F)F)c3)CC2)CCC1 :: 80

a = O=C(NC1CCCCC1)OCCN1CCC(CNC(=O)c2cc(F)cc(C(F)(F)F)c2)CC1
b = COc1cc(F)cc(C(=O)NCC2CCN(CCNC(=O)C3(C(F)(F)F)CC3)CC2)c1
c = O=C(NCC1CCN(CCNC(=O)C2(C(F)(F)F)CC2)CC1)c1cccc(Cl)c1
d = CC(C)(C)C(=O)N1CC(N2CCC(CNC(=O)c3cc(F)cc(Cl)c3)CC2)C1
Exam item: Hey, quick one: sort these by IC50, low to high? Please write the labels in the order that was asked for.
Marked response: b, c, a, d
